Source listed as patent US20210045385A1.

Reported Foxtail, Giant plant response rating values for the following molecules.
Tested on: foxtail, giant (giant foxtail, Setaria faberii)
Assay: Test A preemergence, visual plant response rating
Assay type: in vivo
Settings: 125 g ai/ha, preemergence; 0 to 100 scale, 0 no effect, 100 complete control
Lab note: record just the number, no unit beside it.

>>> df
                                   molecule                                       tgt  measured
0  C=CCON=C(c1c(O)c(C)nn(C)c1=O)c1cc(Br)cc2ccccc12 [Compound 115]  foxtail, giant (giant foxtail, Setaria faberii)        90
1  CCO/N=C(\c1c(O)c(C)nn(C)c1=O)c1cccc2ccccc12 [Compound 79]  foxtail, giant (giant foxtail, Setaria faberii)        60
2  CON=C(c1c(OC(C)=O)c(C)nn(C)c1=O)c1cccc2ccccc12 [Compound 48]  foxtail, giant (giant foxtail, Setaria faberii)        90
3  CO/N=C(/c1c(O)c(Cl)nn(C)c1=O)c1cccc2ccccc12 [Compound 145]  foxtail, giant (giant foxtail, Setaria faberii)        50

// below: Foxtail, Giant plant response rating requested for another molecule
Request body: readout Foxtail, Giant plant response rating, system foxtail, giant (giant foxtail, Setaria faberii), query CO/N=C(\c1c(O)c(C)nn(C)c1=O)c1cc(Br)cc2ccccc12 [Compound 91] . Return the value.
100
